# shrunken log2 fold change per record follows
System: Escherichia coli TOP10
Assay: shrunken log2 fold change of peptide-encoding DNA abundance (4.5 h post-induction vs induction); higher = less antimicrobial activity (less host growth inhibition)
Conditions: time post-induction: 4.5 h; library: site-saturation at positions 5, 18, 19, 20

{"columns": ["SEQUENCE_TEXT", "shrunken log2 fold change"],
 "data": [
  ["RRIRNRPPRLPRPRPRPSPQPRP", 0.162],
  ["RRIRVRPPRLPRPRPRPDFDPRP", 0.0753],
  ["RRIRMRPPRLPRPRPRPMTRPRP", 0.118],
  ["RRIRPRPPRLPRPRPRPWRRPRP", 0.142],
  ["RRIRFRPPRLPRPRPRPAKVPRP", 0.333],
  ["RRIRTRPPRLPRPRPRPGGHPRP", 0.0329],
  ["RRIRLRPPRLPRPRPRPHHEPRP", 0.0418],
  ["RRIRCRPPRLPRPRPRPSACPRP", -0.0897],
  ["RRIRNRPPRLPRPRPRPVYNPRP", -0.381],
  ["RRIRMRPPRLPRPRPRPDVAPRP", 0.0335],
  ["RRIRWRPPRLPRPRPRPPDDPRP", 0.847],
  ["RRIRQRPPRLPRPRPRPDPMPRP", -0.0539],
  ["RRIRCRPPRLPRPRPRPPFPPRP", 0.302],
  ["RRIRPRPPRLPRPRPRPTAGPRP", 0.252],
  ["RRIRDRPPRLPRPRPRPRLAPRP", 0.686],
  ["RRIRQRPPRLPRPRPRPFCPPRP", -0.236],
  ["RRIRGRPPRLPRPRPRPQWVPRP", 0.218],
  ["RRIRSRPPRLPRPRPRPWLHPRP", -0.254],
  ["RRIRHRPPRLPRPRPRPEWYPRP", 0.0294],
  ["RRIRRRPPRLPRPRPRPIVFPRP", 0.00406],
  ["RRIRWRPPRLPRPRPRPEITPRP", 0.437],
  ["RRIRMRPPRLPRPRPRPISVPRP", 0.103],
  ["RRIRPRPPRLPRPRPRPTSIPRP", -0.375],
  ["RRIRDRPPRLPRPRPRPECPPRP", 0.0118],
  ["RRIRKRPPRLPRPRPRPMATPRP", 0.329],
  ["RRIRPRPPRLPRPRPRPVTAPRP", 0.385],
  ["RRIRYRPPRLPRPRPRPGICPRP", -0.179],
  ["RRIRKRPPRLPRPRPRPETAPRP", 1.21],
  ["RRIRTRPPRLPRPRPRPVPYPRP", -0.0764],
  ["RRIRERPPRLPRPRPRPNEPPRP", -0.129],
  ["RRIRDRPPRLPRPRPRPESDPRP", 0.000356],
  ["RRIRARPPRLPRPRPRPMWHPRP", 0.131]
]}

###

Test system: Escherichia coli TOP10;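 note: peptides expressed intracellularly from a pBAD plasmid library in pooled LB shake-flask culture, induced with 0.3% L-arabinose, DNA abundance read by NGS, three biological replicates, DESeq2 with apeglm shrinkage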
Test: shrunken log2 fold change of peptide-encoding DNA abundance (4.5 h post-induction vs induction); higher = less antimicrobial activity (less host growth inhibition)
Details: time post-induction: 4.5 h; library: site-saturation at positions 5, 18, 19, 20
# label = bin(measured shrunken log2 fold change), where bins are Low: < -0.08; Medium: ≥ -0.08 and < 0.05; High: ≥ 0.05

{"columns": ["SEQUENCE_TEXT", "CLASS_LABEL"],
 "data": [
  ["RRIRMRPPRLPRPRPRPHMQPRP", "Low"],
  ["RRIRFRPPRLPRPRPRPFHNPRP", "Low"],
  ["RRIRRRPPRLPRPRPRPHIFPRP", "Medium"],
  ["RRIRFRPPRLPRPRPRPAHIPRP", "Low"],
  ["RRIRKRPPRLPRPRPRPMPDPRP", "High"],
  ["RRIRARPPRLPRPRPRPVQCPRP", "High"],
  ["RRIRVRPPRLPRPRPRPYVSPRP", "Low"],
  ["RRIRPRPPRLPRPRPRPQECPRP", "Medium"],
  ["RRIRNRPPRLPRPRPRPHYRPRP", "Medium"],
  ["RRIRNRPPRLPRPRPRPNKFPRP", "Low"],
  ["RRIRTRPPRLPRPRPRPPHTPRP", "Medium"],
  ["RRIRQRPPRLPRPRPRPICSPRP", "Medium"],
  ["RRIRGRPPRLPRPRPRPVRSPRP", "High"],
  ["RRIRGRPPRLPRPRPRPVMEPRP", "High"],
  ["RRIRCRPPRLPRPRPRPAMLPRP", "Medium"],
  ["RRIRSRPPRLPRPRPRPEDTPRP", "Medium"],
  ["RRIRVRPPRLPRPRPRPGGKPRP", "High"],
  ["RRIRVRPPRLPRPRPRPDEIPRP", "Medium"],
  ["RRIRSRPPRLPRPRPRPSCDPRP", "Low"],
  ["RRIRIRPPRLPRPRPRPRQGPRP", "High"],
  ["RRIRSRPPRLPRPRPRPWHKPRP", "Low"],
  ["RRIRNRPPRLPRPRPRPRPCPRP", "High"],
  ["RRIRCRPPRLPRPRPRPHQIPRP", "Low"],
  ["RRIRMRPPRLPRPRPRPLRNPRP", "High"],
  ["RRIRCRPPRLPRPRPRPIGRPRP", "Medium"],
  ["RRIRERPPRLPRPRPRPFNPPRP", "Low"],
  ["RRIRFRPPRLPRPRPRPSLVPRP", "Low"],
  ["RRIRRRPPRLPRPRPRPCEPPRP", "Medium"],
  ["RRIRERPPRLPRPRPRPYFMPRP", "Low"],
  ["RRIRRRPPRLPRPRPRPWAYPRP", "Medium"],
  ["RRIRWRPPRLPRPRPRPHFYPRP", "Low"],
  ["RRIRQRPPRLPRPRPRPDGCPRP", "Low"],
  ["RRIRYRPPRLPRPRPRPGEPPRP", "Medium"],
  ["RRIRQRPPRLPRPRPRPWFEPRP", "Medium"],
  ["RRIRYRPPRLPRPRPRPQILPRP", "Medium"],
  ["RRIRCRPPRLPRPRPRPNQFPRP", "Low"],
  ["RRIRDRPPRLPRPRPRPVLQPRP", "High"],
  ["RRIRERPPRLPRPRPRPWTKPRP", "Medium"],
  ["RRIRTRPPRLPRPRPRPEWSPRP", "Medium"],
  ["RRIRERPPRLPRPRPRPFSCPRP", "Medium"],
  ["RRIRRRPPRLPRPRPRPGFTPRP", "Medium"],
  ["RRIRLRPPRLPRPRPRPWSEPRP", "High"],
  ["RRIRARPPRLPRPRPRPKASPRP", "High"],
  ["RRIRDRPPRLPRPRPRPDLCPRP", "Medium"],
  ["RRIRVRPPRLPRPRPRPWPVPRP", "High"],
  ["RRIRPRPPRLPRPRPRPGAHPRP", "High"],
  ["RRIRRRPPRLPRPRPRPYFCPRP", "Low"],
  ["RRIRHRPPRLPRPRPRPTASPRP", "Low"],
  ["RRIRSRPPRLPRPRPRPFGDPRP", "Low"],
  ["RRIRPRPPRLPRPRPRPWTQPRP", "Medium"],
  ["RRIRYRPPRLPRPRPRPMYFPRP", "Low"],
  ["RRIRWRPPRLPRPRPRPHTCPRP", "Medium"],
  ["RRIRQRPPRLPRPRPRPWWRPRP", "High"],
  ["RRIRLRPPRLPRPRPRPQQNPRP", "Low"],
  ["RRIRMRPPRLPRPRPRPLGLPRP", "High"],
  ["RRIRIRPPRLPRPRPRPYREPRP", "Medium"],
  ["RRIRDRPPRLPRPRPRPCPNPRP", "Medium"],
  ["RRIRIRPPRLPRPRPRPFNTPRP", "Low"],
  ["RRIRGRPPRLPRPRPRPEAWPRP", "High"],
  ["RRIRTRPPRLPRPRPRPRSHPRP", "High"],
  ["RRIRARPPRLPRPRPRPLWPPRP", "High"]
]}
